Target: human VPAC2 (Homo sapiens, UniProt P41587)
Construct: expressed in transfected cells
Sequence (P41587 24-438): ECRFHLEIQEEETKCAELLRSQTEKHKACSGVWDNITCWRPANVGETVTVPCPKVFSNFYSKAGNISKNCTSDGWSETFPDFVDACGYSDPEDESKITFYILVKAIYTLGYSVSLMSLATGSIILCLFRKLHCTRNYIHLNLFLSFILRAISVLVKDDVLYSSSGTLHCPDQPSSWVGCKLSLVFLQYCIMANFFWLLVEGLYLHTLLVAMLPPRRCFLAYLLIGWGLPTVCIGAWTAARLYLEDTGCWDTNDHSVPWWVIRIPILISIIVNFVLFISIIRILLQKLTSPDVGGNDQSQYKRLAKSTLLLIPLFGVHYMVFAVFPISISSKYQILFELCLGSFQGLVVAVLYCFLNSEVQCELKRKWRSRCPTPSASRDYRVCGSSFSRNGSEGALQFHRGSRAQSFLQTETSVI
Assay: Alpha screen cAMP in vitro potency, human VPAC2
Type: cell-based
Where no end group is shown, it is not given here.
Known pEC50 of a selection of substances
Note: pEC50 values are expressed as the negative base-10 logarithm of concentration in M.

Substance | pEC50
HSDAVFTDNYTRLRKAAAAKKYLQSIKNSRTSPPP-NH2 [Agonist P97] | 9.19

q: // map Ac-HSDAVFTDNYTRLRKQVAAKKYLQSIKNSRTSPPP-NH2 [Agonist P32] to recorded pEC50 (system: human VPAC2 (Homo sapiens, UniProt P41587))
a: 9.49

q: Again, but for HSDAVFTDNYTRLRKQVAAKKYLQSIKNSRTSPPP-NH2 [Agonist P5]
a: 8.82

q: Again, but for HSDAVFTDNYTRLRKQAAAKKYLQSIKNSRTSPPP-NH2 [Agonist P96]
a: 9.05

Provenance of the data: patent US20080096811A1
